What MIC was measured for each of the following?
tested on: APAE001 (ATCC27853); assay: MIC broth microdilution, APAE001; format: cell-based, P. aeruginosa; details: Pseudomonas aeruginosa, ATCC27853, read-out: MIC APAE001, APAE001 is ATCC27853

Sample "O=C(N[C@H](C(=O)NO)C1CCNCC1)c1ccc(C#Cc2ccc(CN3CCOCC3)cc2)cc1" — what was its MIC?
16 to 64 µg/mL

Now consider "C[C@@H](O)[C@H](NC(=O)c1ccc(N2CCC(c3ccc(CN4CCOCC4)cc3)CC2)cc1)C(=O)NO" .
16 to 64 µg/mL

Likewise for "C[C@@H](N)[C@H](NC(=O)c1ccc(C#Cc2ccc(CNCc3nccn3C)cc2)cc1)C(=O)NO" ?
2 to 16 µg/mL

Record: "C[C@@H](N)[C@H](NC(=O)c1ccc(C#Cc2cccnc2)cc1)C(=O)NO"
2 to 16 µg/mL

Follow-up item: "C[C@@H](N)[C@H](NC(=O)c1ccc(C#CC#Cc2cccnc2)cc1)C(=O)NO"
< 2 µg/mL

Follow-up item: "C[C@@H](N)[C@H](NC(=O)c1ccc(C#Cc2ccc(CCN)cc2)cc1)C(=O)NO"
> 64 µg/mL

Would you mind doing "C[C@@H](NC(=O)CNC1CC1)[C@H](NC(=O)c1ccc(C#CC#Cc2ccccc2)cc1)C(=O)NO" as well?
2 to 16 µg/mL

Another: "C[C@@H](N)[C@H](NC(=O)c1ccc(C#Cc2ccc(CNC3CCCC3)cc2)cc1)C(=O)NO"
< 2 µg/mL

Entry "NCC(=O)NCc1ccc(C#Cc2ccc(C(=O)N[C@@H](CN)C(=O)NO)cc2)cc1" please
2 to 16 µg/mL

Please give the result for "C[C@@H](N)[C@H](NC(=O)c1ccc(C#Cc2ccc(CNS(C)(=O)=O)cc2)cc1)C(=O)NO" too.
< 2 µg/mL

Try "C[C@@H](N)[C@H](NC(=O)c1ccc(C#CC#Cc2cccc(F)c2)cc1)C(=O)NO" next.
< 2 µg/mL

How about "O=C(CNC1CC1)NC[C@H](NC(=O)c1ccc(C#C/C=C/c2ccccc2)cc1)C(=O)NO" ?
2 to 16 µg/mL

What about "C[C@@H](N)[C@H](NC(=O)c1ccc(C#CC#Cc2ccncc2)cc1)C(=O)NO" ?
< 2 µg/mL

Can you check "C[C@@H](N)[C@H](NC(=O)c1ccc(C#Cc2ccc(CN3CCc4[nH]ncc4C3)cc2)cc1)C(=O)NO" next?
< 2 µg/mL

For "CC(C)(O)[C@H](NC(=O)c1ccc(C#CC#Cc2cccnc2)cc1)C(=O)NO" then?
2 to 16 µg/mL

Same for CC(C)(N)C(NC(=O)c1ccc(C#Cc2ccc(CNC3CC3)cc2)cc1)C(=O)NO (stereo not shown)
< 2 µg/mL

Origin of values: patent US9617256B2
